# System: ryegrass, Italian
# Experimental details: Test C postemergence
# Assay type: in vivo, Lolium multiflorum
# Condition summary: 125 g ai/ha, postemergence, 10 days; 0 to 100 scale, 0 no effect, 100 complete control

Compound: C[C@H]1CN(C(=O)c2cccc(-n3cnc(C(C)(C)O)n3)c2)c2cccc(Cl)c2O1 [Compound 169]
Plant response rating, Ryegrass, Italian: 60
//
Compound: CCc1ccc(-n2cnc(C(C)(C)O)n2)cc1C(=O)N1C[C@H](C)Oc2c(C)cccc21 [Compound 279]
Plant response rating, Ryegrass, Italian: 90
//
Compound: COc1ccc(-n2cnc(C(C)C)n2)cc1C(=O)N1C[C@H](C)Oc2c(C)cccc21 [Compound 210]
Plant response rating, Ryegrass, Italian: 60
//
Compound: CC1Oc2ccccc2N(C(=O)c2cccc(-n3cncn3)c2)C1C (stereo not shown) [Compound 285]
Plant response rating, Ryegrass, Italian: 0

====

Here the recorded pest or weed control at 125 g/ha is given for each entry.
# System: ragweed
# Experimental details: Test A preemergence
# Type: in vivo, Ambrosia artemisiifolia
# Condition summary: Ambrosia artemisiifolia, pre-emergence, 240 h, 125 g ai/ha, visual injury after 10 days, 0 to 100 scale, 0 is no effect, 100 is complete control, read-out: Plant response rating, Ragweed
# Excerpt: […]

Line notation: Cc1ccc(-n2cnc(C3CCC3)n2)cc1C(=O)N1C[C@H](C)Oc2c(Cl)cccc21
pest or weed control at 125 g/ha [%]: 30
--
Line notation: Cc1cccc2c1O[C@@H](C)CN2C(=O)c1cccc(-n2cnc(C3CCCC3)n2)c1
pest or weed control at 125 g/ha [%]: 0
--
Line notation: Cc1ccc(-n2cnc(C(C)C)n2)cc1C(=O)N1C[C@H](C)Oc2c(Cl)cccc21
pest or weed control at 125 g/ha [%]: 30

====

# Test system: ducksalad
# Experimental details: Test D flooded paddy test
# Format: in vivo, Heteranthera limosa
# Condition summary: 250 g ai/ha, applied to paddy water, visual rating after 13 to 14 days, scale 0 to 100 (0 no effect, 100 complete control)
Measurement label: Plant response rating, Ducksalad (Flood)

Molecule: CCc1ncn(-c2ccc(OC)c(C(=O)N3C[C@H](C)Oc4c(C)cccc43)c2)n1 [Compound 211]
Target under test: ducksalad
Observed measurement: 100
--
Molecule: Cc1cccc2c1O[C@@H](C)CN2C(=O)c1cccc(-n2cnc(-c3ccccc3)n2)c1 [Compound 283]
Target under test: ducksalad
Observed measurement: 0
--
Molecule: Cc1ncn(-c2ccc(F)c(C(=S)N3C[C@H](C)Oc4c(C)cccc43)c2)n1 [Compound 362]
Target under test: ducksalad
Observed measurement: 50
--
Molecule: CCOC[C@H]1CN(C(=O)c2cc(-n3cnc(C(C)C)n3)cc3c2OCO3)c2cccc(Cl)c2O1 [Compound 400]
Target under test: ducksalad
Observed measurement: 45

====

# Tested on: galium
# Experimental details: Test A postemergence
# Format: in vivo, Galium aparine
# Condition summary: 500 g ai/ha, postemergence, 10 days, visual injury, 0 to 100 scale (0 no effect, 100 complete control)

Line notation: C=CCOc1ccc(-n2cnc(C(C)C)n2)cc1C(=O)N1C[C@H](C)Oc2c(Cl)cccc21
Plant response rating, Galium: 100
--
Line notation: Cc1cccc2c1O[C@@H](C)CN2C(=O)c1cccc(-n2cnn(C(C)C)c2=O)c1
Plant response rating, Galium: 30
--
Line notation: Cc1nc(C)n(-c2cccc(C(=O)N3C[C@H](C)Oc4c(Cl)cccc43)c2)n1
Plant response rating, Galium: 30
--
Line notation: CC(C)c1ncn(-c2ccc(C#N)c(C(=O)N3C[C@H](C)Oc4c(Cl)cccc43)c2)n1
Plant response rating, Galium: 70
--
Line notation: C[C@H]1CN(C(=O)c2cc(Br)cc(-n3cncn3)c2)c2cccc(Cl)c2O1
Plant response rating, Galium: 70
